Data origin: patent US6861448B2

- Test system: rabbit primary renal cells (RPRC)
- EXPERIMENTAL_DETAILS: Cytotoxicity in rabbit primary renal cells (annexin V / PI flow cytometry)
- Assay type: cell-based
- ASSAY_SETUP: at peak effect (30 μM); 24 hr; mean ± SEM
Measured % APOPTOSIS (RPRC), listed per entry.

[
  {
    "MOLECULE": "C[N+](C)(C)C(Cc1ccccc1)C(=O)NCCCCCCCCOc1ccc(OC(=O)c2cccc(Cl)c2)cc1 (stereo not drawn)",
    "% APOPTOSIS (RPRC)": "13 ± 2%"
  },
  {
    "MOLECULE": "C[N+](C)(C)C.[I-] [TMAI, tetramethylammonium iodide, reference compound]",
    "% APOPTOSIS (RPRC)": "5 ± 1%"
  },
  {
    "MOLECULE": "O=C(O)c1cn(C2CC2)c2cc(N3CCNCC3)c(F)cc2c1=O [Ciprofloxacin, reference compound]",
    "% APOPTOSIS (RPRC)": "9 ± 3%"
  }
]

IN: Request: % APOPTOSIS (RPRC), test system rabbit primary renal cells (RPRC), entry `C[N+](C)(C)[C@H](COCCCCCCCCOc1ccc(OCc2ccccc2)cc1)Cc1ccccc1`
OUT: 10 ± 1%

IN: Request: % APOPTOSIS (RPRC), test system rabbit primary renal cells (RPRC), entry C[N+](C)(C)C(Cc1ccccc1)C(=O)NCCCCCCCCOc1ccc(OC(=O)c2cc(F)cc(F)c2F)cc1 (stereo not drawn)
OUT: 23 ± 3%

IN: Request: % APOPTOSIS (RPRC), test system rabbit primary renal cells (RPRC), entry C[N+](C)(C)C(Cc1ccccc1)C(=O)NCCCCCCCCOc1ccc(OCc2ccccc2)cc1 (stereo not drawn)
OUT: 15 ± 3%

---

Measured pIC50, listed per entry.
- SUBJECT_OF_TEST: NAD synthetase (Bacillus subtilis)
- Sequence (P08164 whole entry): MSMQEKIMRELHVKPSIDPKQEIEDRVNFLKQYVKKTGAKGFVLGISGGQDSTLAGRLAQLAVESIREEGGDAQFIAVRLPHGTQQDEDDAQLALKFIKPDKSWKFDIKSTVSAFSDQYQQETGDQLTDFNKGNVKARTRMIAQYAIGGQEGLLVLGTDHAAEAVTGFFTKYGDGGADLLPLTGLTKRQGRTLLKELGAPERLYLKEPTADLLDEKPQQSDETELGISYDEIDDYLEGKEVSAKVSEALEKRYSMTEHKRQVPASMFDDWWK
- EXPERIMENTAL_DETAILS: NAD synthetase coupled enzyme assay
- Assay type: biochemical
- ASSAY_SETUP: NAD synthetase 2.0 μg/mL; 0.1 mM NaAD; 0.2 mM ATP; pH 8.5
pIC50 here is simply -log10 of the concentration when that concentration is written in mol/L.

Here's what some known entries look like.
[
  {
    "MOLECULE": "CC(=O)Nc1ccc(C(=O)Oc2ccc(OCCCCCCCCOC(=O)C(Cc3ccccc3)[N+](C)(C)C)cc2)cc1 (stereo not drawn)",
    "pIC50": 4.58
  },
  {
    "MOLECULE": "C[N+](C)(C)[C@@H](Cc1ccccc1)C(=O)NCCCCCCCCn1ccc2cc(OCc3ccccc3)ccc21.[I-]",
    "pIC50": 4.66
  },
  {
    "MOLECULE": "N=C(N)N[C@@H](Cc1ccccc1)C(=O)NCCCCCCCCOc1ccc(OCc2ccccc2)cc1 [Compound 1681]",
    "pIC50": 4.89
  },
  {
    "MOLECULE": "C[N+]1([C@@H](Cc2ccccc2)C(=O)NCCCCCCCCOc2ccc(OCc3ccccc3)cc2)CCCC1",
    "pIC50": 4.48
  },
  {
    "MOLECULE": "C[N+](C)(C)C(Cc1ccccc1)C(=O)OCCCCCCCCOc1ccc(OC(=O)c2ccccc2)cc1 (stereo not drawn)",
    "pIC50": 4.74
  },
  {
    "MOLECULE": "C[N+](C)(C)C(Cc1ccccc1)C(=O)NCCCCCCCCOc1ccc(OC(=O)c2cc(F)cc(F)c2)cc1 (stereo not drawn)",
    "pIC50": 4.64
  },
  {
    "MOLECULE": "COC(=O)c1ccc(OCCCCCCCCOC(=O)Cc2ccc([N+](C)(C)C)cc2)cc1OCc1ccccc1",
    "pIC50": 4.34
  },
  {
    "MOLECULE": "CC[N+]1([C@@H](Cc2ccccc2)C(=O)NCCCCCCCCOc2ccc(OCc3ccccc3)cc2)CCCC1",
    "pIC50": 4.42
  }
]

IN: Requested read-out: pIC50. Entry: `C[N+](C)(C)c1ccc(CC(=O)OCCCCCCCCCCCOc2ccc(OCc3ccccc3)cc2)cc1`
OUT: 4.32

IN: Requested read-out: pIC50. Entry: `C[n+]1cccc(C(=O)NCCCCCCCCOc2ccc(OC(=O)c3ccc(Cl)c(Cl)c3)cc2)c1`
OUT: 4.71

IN: Requested read-out: pIC50. Entry: C[N+](C)(C)C(Cc1ccccc1)C(=O)NCCCCCCCCOc1ccc(OC(=O)c2ccccc2F)cc1 (stereo not drawn)
OUT: 4.55

IN: Requested read-out: pIC50. Entry: `C[N+](C)(C)c1ccc(CC(=O)NCCCCCCCCOc2ccc(OC(=O)c3ccc(Cl)cc3Cl)cc2)cc1`
OUT: 4.69

IN: Requested read-out: pIC50. Entry: C[N+](C)(C)C(Cc1ccccc1)C(=O)OCCCCCCCCOc1ccc(OC(=O)c2ccc(-n3ccnc3)cc2)cc1 (stereo not drawn)
OUT: 4.42

IN: Requested read-out: pIC50. Entry: `C[n+]1cccc(C(=O)NCCCCCCCCOc2ccc(OC(=O)c3ccc(Cl)cc3)cc2)c1`
OUT: 4.71

IN: Requested read-out: pIC50. Entry: `Cl.N=C(N)N[C@H](COCCCCCCCCOc1ccc(OCc2ccccc2)cc1)Cc1ccccc1`
OUT: 5.00

---

- SUBJECT_OF_TEST: UniProt P08164
- EXPERIMENTAL_DETAILS: NAD synthetase coupled enzyme assay
- Type: biochemical
- ASSAY_SETUP: NAD synthetase 2.0 μg/mL; 0.1 mM NaAD; 0.2 mM ATP; pH 8.5
MEASUREMENT_KIND: pIC50
pIC50 here is simply -log10 of the concentration when that concentration is written in mol/L.

Here's what some known entries look like.
[
  {
    "COMPOUND": "C[N+](C)(C)C(Cc1ccccc1)C(=O)NCCCCCCCCOc1ccc(OC(=O)c2ccc(F)c(F)c2)cc1 (stereo not drawn)",
    "SUBJECT_OF_TEST": "UniProt P08164",
    "VALUE_REPORTED": 4.72
  },
  {
    "COMPOUND": "C[N+](C)(C)C(Cc1ccccc1)C(=O)NCCCCCCCCOc1ccc(OC(=O)c2c(F)cc(F)cc2F)cc1 (stereo not drawn)",
    "SUBJECT_OF_TEST": "UniProt P08164",
    "VALUE_REPORTED": 4.66
  },
  {
    "COMPOUND": "CCC[N+]1([C@@H](Cc2ccccc2)C(=O)NCCCCCCCCOc2ccc(OCc3ccccc3)cc2)CCCC1",
    "SUBJECT_OF_TEST": "UniProt P08164",
    "VALUE_REPORTED": 4.45
  },
  {
    "COMPOUND": "C[N+](C)(C)C(Cc1ccccc1)C(=O)NCCCCCCCCOc1ccc(OC(=O)c2cc(F)c(F)c(F)c2)cc1 (stereo not drawn)",
    "SUBJECT_OF_TEST": "UniProt P08164",
    "VALUE_REPORTED": 4.59
  },
  {
    "COMPOUND": "COc1cccc(COc2ccc(OCCCCCCCCNC(=O)[C@H](Cc3ccccc3)[N+](C)(C)C)cc2)c1.[I-]",
    "SUBJECT_OF_TEST": "UniProt P08164",
    "VALUE_REPORTED": 4.48
  }
]

Then there is this compound:
IN: Requested read-out: pIC50. Entry: C[N+](C)(C)C(Cc1ccccc1)C(=O)NCCCCCCCCOc1ccc(OC(=O)c2ccc(F)cc2F)cc1 (stereo not drawn)
OUT: 4.52

---

- SUBJECT_OF_TEST: NAD synthetase (Bacillus subtilis)
- EXPERIMENTAL_DETAILS: NAD synthetase coupled enzyme assay
- Format: biochemical
Measured pIC50, listed per entry.
pIC50 here is simply -log10 of the concentration when that concentration is written in mol/L.

Here's what some known entries look like.
[
  {
    "COMPOUND": "N=C(N)N[C@H](COCCCCCCCCOc1ccc(OCc2ccccc2)cc1)Cc1ccccc1",
    "MEASUREMENT_KIND": "pIC50",
    "VALUE_REPORTED": 4.98
  },
  {
    "COMPOUND": "C[N+](C)(C)[C@H](COCCCCCCCCOc1ccc(OCc2ccccc2)cc1)Cc1ccccc1",
    "MEASUREMENT_KIND": "pIC50",
    "VALUE_REPORTED": 4.64
  },
  {
    "COMPOUND": "N=C(N)N[C@@H](Cc1ccccc1)C(=O)NCCCCCCCCOc1ccc(OCc2ccccc2)cc1",
    "MEASUREMENT_KIND": "pIC50",
    "VALUE_REPORTED": 4.90
  }
]

Then there is this compound:
IN: Requested read-out: pIC50. Entry: C[N+](C)(C)C(Cc1ccccc1)C(=O)NCCCCCCCCOc1ccc(OCc2ccccc2)cc1 (stereo not shown)
OUT: 4.32
